Molecular target: panel of 255 wild-type kinases (Homo sapiens)
Sequence (Q06418 41-890): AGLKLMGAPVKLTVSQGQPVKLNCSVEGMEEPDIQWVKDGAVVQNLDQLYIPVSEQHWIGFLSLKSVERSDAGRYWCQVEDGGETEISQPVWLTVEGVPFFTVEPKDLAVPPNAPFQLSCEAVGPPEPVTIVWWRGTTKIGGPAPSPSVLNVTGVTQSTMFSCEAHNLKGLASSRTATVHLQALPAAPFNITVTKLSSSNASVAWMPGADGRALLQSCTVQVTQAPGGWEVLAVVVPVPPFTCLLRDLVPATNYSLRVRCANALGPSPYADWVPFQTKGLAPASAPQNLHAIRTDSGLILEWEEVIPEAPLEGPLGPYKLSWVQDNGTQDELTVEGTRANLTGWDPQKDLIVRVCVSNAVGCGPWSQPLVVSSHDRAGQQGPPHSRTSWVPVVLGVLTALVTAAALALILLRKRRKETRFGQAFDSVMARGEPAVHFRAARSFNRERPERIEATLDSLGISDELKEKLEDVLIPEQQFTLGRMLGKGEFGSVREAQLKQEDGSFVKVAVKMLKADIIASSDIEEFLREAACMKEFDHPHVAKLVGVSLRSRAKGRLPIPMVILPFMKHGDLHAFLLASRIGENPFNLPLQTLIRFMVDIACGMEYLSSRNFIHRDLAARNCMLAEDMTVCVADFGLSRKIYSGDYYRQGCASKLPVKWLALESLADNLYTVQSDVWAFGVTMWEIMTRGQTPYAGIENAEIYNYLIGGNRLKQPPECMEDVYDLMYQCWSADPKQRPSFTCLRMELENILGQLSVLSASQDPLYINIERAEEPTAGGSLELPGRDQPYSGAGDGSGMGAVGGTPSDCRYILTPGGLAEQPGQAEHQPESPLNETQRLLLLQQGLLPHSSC
Test: Kinase panel profiling at 1 µmol/L (MSA or IMAP), percentage inhibition
Type: biochemical
Conditions: kinase TYRO3; 1 µmol/L single concentration; read-out: %-inhibition at 1 µmol/L, TYRO3
Experimental Endpoint: inhibition at 1 µM (%)
Numbers only, in %.

Consider the reported inhibition at 1 µM for these compounds:
{"Compound Structure": "COc1ccc(CN2C3CC2CN(c2ccc(-c4cc(OCC(C)(C)O)cn5ncc(C#N)c45)cn2)C3)cn1", "Observed": 99}
{"Compound Structure": "Cc1nc(NC(=O)N2CCC[C@H]2C(N)=O)sc1-c1ccnc(C(C)(C)C(F)(F)F)c1", "Observed": 1.52}
{"Compound Structure": "C=CC(=O)N1CCC([C@@H]2CCNc3c(C(N)=O)c(-c4ccc(Oc5ccccc5)cc4)nn32)CC1", "Observed": 5.5}

Answer for every listed entry: what is its inhibition at 1 µM? The entries follow.
1. O=C(Nc1cnn2ccc(N3CCC[C@@H]3c3cc(F)ccc3F)nc12)N1CC[C@H](O)C1
2. CO[C@]1(C(=O)N[C@@H](C)c2ccc(-n3cc(F)cn3)nc2)CC[C@H](c2nc(C)cc(Nc3cc(C)[nH]n3)n2)CC1
3. CCn1c(=O)c(-c2cc(NC(=O)Nc3ccccc3)c(F)cc2Br)cc2cnc(NC)cc21
4. CCN1C(=O)N(c2c(F)c(OC)cc(OC)c2F)Cc2cnc3[nH]c(CN4CCOCC4)cc3c21
5. Cc1cc(Nc2ncnc3ccc(NC4=NC(C)(C)CO4)cc23)ccc1Oc1ccn2ncnc2c1

Ans.
[5.58, 97, 9.48, 4, 6]

Answer for every listed entry: what is its inhibition at 1 µM? The entries follow.
1. CCN1CCN(c2ccc(Nc3cc(N(C)C(=O)Nc4c(Cl)c(OC)cc(OC)c4Cl)ncn3)cc2)CC1
2. COC(=O)N[C@@H](C)CNc1nccc(-c2cn(C(C)C)nc2-c2cc(Cl)cc(NS(C)(=O)=O)c2F)n1
3. Cn1cnc2c(F)c(Nc3ccc(Br)cc3F)c(C(=O)NOCCO)cc21
4. Cn1cnc2c(F)c(Nc3ccc(Br)cc3Cl)c(C(=O)NOCCO)cc21
5. FC(F)(F)c1ccc(CNc2ccc(Cc3c[nH]c4ncc(Cl)cc34)cn2)cn1
6. CCc1nc(C(N)=O)c(Nc2ccc(N3CCC(N4CCN(C)CC4)CC3)c(OC)c2)nc1NC1CCOCC1

Ans.
[10, 8, 5.28, 11, 10, 93]

Answer for every listed entry: what is its inhibition at 1 µM? The entries follow.
1. C[C@H]1Oc2cc(cnc2N)-c2c(nn(C)c2C#N)CN(C)C(=O)c2ccc(F)cc21
2. CN1CCN(c2ccc(C(=O)Nc3n[nH]c4ccc(Cc5cc(F)cc(F)c5)cc34)c(NC3CCOCC3)c2)CC1
3. COc1cc2ncnc(Nc3ccc(F)c(Cl)c3)c2cc1NC(=O)/C=C/CN1CCCCC1
4. Cn1cc(-c2cc3c(N4CCN(c5ncc([C@@](C)(N)c6ccc(F)cc6)cn5)CC4)ncnn3c2)cn1
5. C[C@H](Nc1ncnc2nc[nH]c12)c1cc2cccc(Cl)c2c(=O)n1-c1ccccc1

Ans.
9
20
27
72
6

###

target: UniProtKB P08922; experiment: Kinase panel profiling at 1 µmol/L (MSA or IMAP), percentage inhibition; type: biochemical; conditions: kinase ROS; 1 µmol/L single concentration; read-out: %-inhibition at 1 µmol/L, ROS
Sequence (P08922 28-2347): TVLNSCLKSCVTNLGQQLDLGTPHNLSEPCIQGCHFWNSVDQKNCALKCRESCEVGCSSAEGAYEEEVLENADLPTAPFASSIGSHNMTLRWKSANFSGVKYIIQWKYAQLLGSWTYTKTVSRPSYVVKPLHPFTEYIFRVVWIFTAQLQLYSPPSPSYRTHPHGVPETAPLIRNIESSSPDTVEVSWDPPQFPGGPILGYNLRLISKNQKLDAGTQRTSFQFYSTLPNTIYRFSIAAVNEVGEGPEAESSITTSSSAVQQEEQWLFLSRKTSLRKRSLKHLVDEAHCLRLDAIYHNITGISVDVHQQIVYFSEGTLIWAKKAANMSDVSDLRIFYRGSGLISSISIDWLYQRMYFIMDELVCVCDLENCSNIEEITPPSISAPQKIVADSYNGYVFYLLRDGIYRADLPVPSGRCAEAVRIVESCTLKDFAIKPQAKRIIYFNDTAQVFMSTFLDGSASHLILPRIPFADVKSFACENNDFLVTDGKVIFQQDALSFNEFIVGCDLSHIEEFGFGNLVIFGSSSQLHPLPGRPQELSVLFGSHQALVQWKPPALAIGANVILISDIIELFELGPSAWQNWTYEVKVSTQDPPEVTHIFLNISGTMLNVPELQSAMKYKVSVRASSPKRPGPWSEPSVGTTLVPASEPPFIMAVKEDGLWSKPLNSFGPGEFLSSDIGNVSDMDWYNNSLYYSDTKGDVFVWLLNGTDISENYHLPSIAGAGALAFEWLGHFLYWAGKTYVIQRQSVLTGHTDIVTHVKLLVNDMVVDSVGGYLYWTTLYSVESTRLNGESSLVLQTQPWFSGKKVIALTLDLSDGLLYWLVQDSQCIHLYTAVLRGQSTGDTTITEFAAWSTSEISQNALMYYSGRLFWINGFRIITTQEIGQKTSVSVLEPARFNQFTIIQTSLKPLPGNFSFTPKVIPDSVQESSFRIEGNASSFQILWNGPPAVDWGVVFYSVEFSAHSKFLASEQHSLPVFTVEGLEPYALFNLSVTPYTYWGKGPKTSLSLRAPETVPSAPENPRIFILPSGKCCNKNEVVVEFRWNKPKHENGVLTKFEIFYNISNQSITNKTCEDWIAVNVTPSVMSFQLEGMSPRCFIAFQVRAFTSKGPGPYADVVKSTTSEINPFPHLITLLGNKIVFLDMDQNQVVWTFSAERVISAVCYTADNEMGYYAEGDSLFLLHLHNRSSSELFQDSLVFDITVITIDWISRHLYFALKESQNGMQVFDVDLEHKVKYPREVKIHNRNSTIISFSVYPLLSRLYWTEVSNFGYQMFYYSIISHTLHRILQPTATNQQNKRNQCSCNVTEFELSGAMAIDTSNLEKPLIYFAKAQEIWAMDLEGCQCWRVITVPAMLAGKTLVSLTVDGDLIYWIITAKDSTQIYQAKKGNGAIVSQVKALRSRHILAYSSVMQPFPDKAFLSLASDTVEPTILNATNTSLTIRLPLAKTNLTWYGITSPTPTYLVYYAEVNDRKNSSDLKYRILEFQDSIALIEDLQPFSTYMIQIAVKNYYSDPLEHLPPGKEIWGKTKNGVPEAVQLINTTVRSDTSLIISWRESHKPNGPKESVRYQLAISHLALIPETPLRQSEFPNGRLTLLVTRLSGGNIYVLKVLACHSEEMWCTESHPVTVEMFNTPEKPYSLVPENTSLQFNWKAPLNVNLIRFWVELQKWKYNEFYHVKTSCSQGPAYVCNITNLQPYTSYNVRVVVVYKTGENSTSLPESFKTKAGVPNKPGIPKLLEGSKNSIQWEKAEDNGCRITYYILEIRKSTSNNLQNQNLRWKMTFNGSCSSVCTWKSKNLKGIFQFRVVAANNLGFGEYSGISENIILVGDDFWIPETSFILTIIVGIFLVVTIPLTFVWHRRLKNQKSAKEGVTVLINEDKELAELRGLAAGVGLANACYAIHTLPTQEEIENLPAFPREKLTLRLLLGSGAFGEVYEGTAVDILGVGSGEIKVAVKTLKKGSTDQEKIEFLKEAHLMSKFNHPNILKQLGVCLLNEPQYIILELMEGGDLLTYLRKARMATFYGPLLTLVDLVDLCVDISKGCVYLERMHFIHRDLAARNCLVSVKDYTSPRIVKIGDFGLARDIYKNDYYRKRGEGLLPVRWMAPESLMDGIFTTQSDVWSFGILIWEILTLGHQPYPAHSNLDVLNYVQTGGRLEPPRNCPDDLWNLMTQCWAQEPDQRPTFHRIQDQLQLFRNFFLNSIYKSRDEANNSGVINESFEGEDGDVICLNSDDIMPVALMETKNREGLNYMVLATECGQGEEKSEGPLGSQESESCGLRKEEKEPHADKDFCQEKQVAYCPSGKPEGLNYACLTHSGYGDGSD
Experimental Endpoint: inhibition at 1 µM (%)
Numbers only, in %.

{"Compound": "COc1cc2ncnc(Nc3ccc(F)c(Cl)c3)c2cc1NC(=O)/C=C/CN1CCCCC1 [dacomitinib]", "Unit Spec": "%", "Observed": 22}

Answer for every listed entry: what is its inhibition at 1 µM? The entries follow.
1. C=CC(=O)N1CCC([C@@H]2CCNc3c(C(N)=O)c(-c4ccc(Oc5ccccc5)cc4)nn32)CC1 [zanubrutinib]
2. CCn1c(=O)c(-c2cc(NC(=O)Nc3ccccc3)c(F)cc2Br)cc2cnc(NC)cc21 [ripretinib]

Ans.
1. 1.9
2. 3.79

###

test system: 134 cancer cell lines; test: Cell viability assay (ATPlite, 72 hours), IC50 on cancer cell line panel; conditions: Homo sapiens, DU-4475, read-out: IC50 in cell proliferation assay, cell line DU4475 (BRAF p.V600E)
Experimental Endpoint: pIC50
Numbers only, as −log10 of the molar value.

{"Compound": "CCCS(=O)(=O)Nc1ccc(F)c(C(=O)c2c[nH]c3ncc(-c4ccc(Cl)cc4)cc23)c1F [vemurafenib]", "Observed": 5.74}
{"Compound": "Cn1cnc2c(F)c(Nc3ccc(Br)cc3Cl)c(C(=O)NOCCO)cc21 [selumetinib]", "Observed": 7.06}
{"Compound": "CC(C)(C)c1nc(-c2cccc(NS(=O)(=O)c3c(F)cccc3F)c2F)c(-c2ccnc(N)n2)s1 [dabrafenib]", "Observed": 7.26}
{"Compound": "COc1cc2ncnc(Nc3ccc(F)c(Cl)c3)c2cc1NC(=O)/C=C/CN1CCCCC1 [dacomitinib]", "Observed": 5.28}
{"Compound": "CO[C@]1(C(=O)N[C@@H](C)c2ccc(-n3cc(F)cn3)nc2)CC[C@H](c2nc(C)cc(Nc3cc(C)[nH]n3)n2)CC1 [pralsetinib]", "Observed": 4.93}

Next compound, pIC50 to be filled in.
Qu. Identify pIC50 associated with the compound Cc1nc(NC(=O)N2CCC[C@H]2C(N)=O)sc1-c1ccnc(C(C)(C)C(F)(F)F)c1 [alpelisib]
Ans. 6.20

###

Provide the recorded inhibition at 1 µM for the entries that follow.
target: UniProtKB Q9HC98; assay: Kinase panel profiling at 1 µmol/L (MSA or IMAP), percentage inhibition; format: biochemical; conditions: NEK6; 1 µmol/L single concentration; read-out: %-inhibition, NEK6
Sequence (Q9HC98 whole entry): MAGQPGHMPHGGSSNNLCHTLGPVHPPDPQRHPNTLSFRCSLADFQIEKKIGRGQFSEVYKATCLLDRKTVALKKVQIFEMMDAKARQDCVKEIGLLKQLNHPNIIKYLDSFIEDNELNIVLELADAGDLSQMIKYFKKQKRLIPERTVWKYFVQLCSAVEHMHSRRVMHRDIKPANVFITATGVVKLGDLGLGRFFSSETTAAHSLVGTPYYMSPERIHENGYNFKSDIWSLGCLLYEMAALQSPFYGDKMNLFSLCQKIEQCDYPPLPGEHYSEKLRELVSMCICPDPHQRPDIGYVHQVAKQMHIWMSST

Consider the reported inhibition at 1 µM for these molecules:
{"Compound Structure": "COC(=O)N[C@@H](C)CNc1nccc(-c2cn(C(C)C)nc2-c2cc(Cl)cc(NS(C)(=O)=O)c2F)n1", "Test Target": "UniProtKB Q9HC98", "Experimental Endpoint": "inhibition at 1 µM", "Observed": "-2.36%"}
{"Compound Structure": "CN1CCN(c2ccc(C(=O)Nc3n[nH]c4ccc(Cc5cc(F)cc(F)c5)cc34)c(NC3CCOCC3)c2)CC1", "Test Target": "UniProtKB Q9HC98", "Experimental Endpoint": "inhibition at 1 µM", "Observed": "-1.86%"}
{"Compound Structure": "C=CC(=O)N1CCC([C@@H]2CCNc3c(C(N)=O)c(-c4ccc(Oc5ccccc5)cc4)nn32)CC1", "Test Target": "UniProtKB Q9HC98", "Experimental Endpoint": "inhibition at 1 µM", "Observed": "-1%"}

Next molecule, inhibition at 1 µM to be filled in.
Qu. Identify inhibition at 1 µM associated with the molecule `CO[C@]1(C(=O)N[C@@H](C)c2ccc(-n3cc(F)cn3)nc2)CC[C@H](c2nc(C)cc(Nc3cc(C)[nH]n3)n2)CC1`
Ans. -0.0459%

###

Biological target: panel of 255 wild-type kinases (Homo sapiens, UniProt Q9BXA7)
Sequence (Q9BXA7 1-367): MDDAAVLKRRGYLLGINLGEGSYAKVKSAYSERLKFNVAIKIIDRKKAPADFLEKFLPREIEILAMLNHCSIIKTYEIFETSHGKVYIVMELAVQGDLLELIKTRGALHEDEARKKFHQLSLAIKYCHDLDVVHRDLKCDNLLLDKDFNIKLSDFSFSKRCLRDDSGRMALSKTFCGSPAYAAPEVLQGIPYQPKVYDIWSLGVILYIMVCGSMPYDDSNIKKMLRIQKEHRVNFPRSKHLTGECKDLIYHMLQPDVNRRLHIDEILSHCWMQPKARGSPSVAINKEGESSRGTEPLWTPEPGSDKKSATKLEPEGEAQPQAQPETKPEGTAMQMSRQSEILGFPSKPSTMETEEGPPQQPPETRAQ
Assay: Kinase panel profiling at 1 µmol/L (MSA or IMAP), percentage inhibition
Type: biochemical
Conditions: kinase TSSK1; 1 µmol/L single concentration; read-out: %-inhibition at 1 µmol/L, TSSK1
Provide the recorded inhibition at 1 µM for the entries that follow.
Numbers only, in %.

{"Compound": "Cn1cnc2c(F)c(Nc3ccc(Br)cc3Cl)c(C(=O)NOCCO)cc21 [selumetinib]", "Test Target": "panel of 255 wild-type kinases (Homo sapiens, UniProt Q9BXA7)", "Experimental Endpoint": "inhibition at 1 µM", "Observed": 0.947}
{"Compound": "Cn1cc(-c2cc3c(N4CCN(c5ncc([C@@](C)(N)c6ccc(F)cc6)cn5)CC4)ncnn3c2)cn1 [avapritinib]", "Test Target": "panel of 255 wild-type kinases (Homo sapiens, UniProt Q9BXA7)", "Experimental Endpoint": "inhibition at 1 µM", "Observed": 2.83}
{"Compound": "C[C@H]1Oc2cc(cnc2N)-c2c(nn(C)c2C#N)CN(C)C(=O)c2ccc(F)cc21 [lorlatinib]", "Test Target": "panel of 255 wild-type kinases (Homo sapiens, UniProt Q9BXA7)", "Experimental Endpoint": "inhibition at 1 µM", "Observed": 84}
{"Compound": "CO[C@]1(C(=O)N[C@@H](C)c2ccc(-n3cc(F)cn3)nc2)CC[C@H](c2nc(C)cc(Nc3cc(C)[nH]n3)n2)CC1 [pralsetinib]", "Test Target": "panel of 255 wild-type kinases (Homo sapiens, UniProt Q9BXA7)", "Experimental Endpoint": "inhibition at 1 µM", "Observed": 4.54}

Answer for every listed entry: what is its inhibition at 1 µM? The entries follow.
1. COc1cc2ncnc(Nc3ccc(F)c(Cl)c3)c2cc1NC(=O)/C=C/CN1CCCCC1 [dacomitinib]
2. CCn1c(=O)c(-c2cc(NC(=O)Nc3ccccc3)c(F)cc2Br)cc2cnc(NC)cc21 [ripretinib]
3. COC(=O)N[C@@H](C)CNc1nccc(-c2cn(C(C)C)nc2-c2cc(Cl)cc(NS(C)(=O)=O)c2F)n1 [encorafenib]

Ans.
[-2.48, -4.3, 3]
